Target: T1, GAL4 activation domain fusion (ACT) to HAB1 (UniProt Q9CAJ0 23-511, limits assumed)
T1 construct: pACT-HAB1 fusion in yeast reporter strains; also called pACT-HAB1
T1 sequence (looked up): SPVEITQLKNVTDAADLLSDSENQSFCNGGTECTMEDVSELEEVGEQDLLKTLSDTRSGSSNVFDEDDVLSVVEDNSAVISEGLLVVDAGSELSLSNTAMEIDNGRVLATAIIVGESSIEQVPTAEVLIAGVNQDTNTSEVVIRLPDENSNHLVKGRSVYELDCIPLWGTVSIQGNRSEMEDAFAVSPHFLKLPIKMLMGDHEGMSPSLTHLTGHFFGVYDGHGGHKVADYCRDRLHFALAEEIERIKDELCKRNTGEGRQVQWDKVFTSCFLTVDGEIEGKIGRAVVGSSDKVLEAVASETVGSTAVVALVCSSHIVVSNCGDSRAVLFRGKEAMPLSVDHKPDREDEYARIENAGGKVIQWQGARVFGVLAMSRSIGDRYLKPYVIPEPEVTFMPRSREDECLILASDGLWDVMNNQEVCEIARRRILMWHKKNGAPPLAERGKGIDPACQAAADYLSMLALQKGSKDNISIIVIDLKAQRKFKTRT
Assay: yeast two-hybrid, X-gal; lowest dichlobenil concentration giving signal
Each record here notes measured Threshold.
Report the value in µM with no unit label.

Some binders with recorded Threshold:
PYR1^K59R,V164C (receptor, not shown: small tags and cut ends, pBD-PYR1 fusion in yeast) MPSELTPEERSELKNSIAEFHTYQLDPGSCSSLHAQRIHAPPELVWSIVRRFDKPQTYRHFIKSCSVEQNFEMRVGCTRDVIVISGLPANTSTERLDILDDERRVTGFSIIGGEHRLTNYKSVTTVHRFEKENRIWTVVLESYVVDMPEGNSEDDTRMFADTVCKLNLQKLATVAEAMARNSGDGSGSQVT; 100
PYR1^K59R,M158V (receptor, not shown: small tags and cut ends, pBD-PYR1 fusion in yeast) MPSELTPEERSELKNSIAEFHTYQLDPGSCSSLHAQRIHAPPELVWSIVRRFDKPQTYRHFIKSCSVEQNFEMRVGCTRDVIVISGLPANTSTERLDILDDERRVTGFSIIGGEHRLTNYKSVTTVHRFEKENRIWTVVLESYVVDMPEGNSEDDTRVFADTVVKLNLQKLATVAEAMARNSGDGSGSQVT; 100
PYR1^K59R,L87P (receptor, not shown: small tags and cut ends, pBD-PYR1 fusion in yeast) MPSELTPEERSELKNSIAEFHTYQLDPGSCSSLHAQRIHAPPELVWSIVRRFDKPQTYRHFIKSCSVEQNFEMRVGCTRDVIVISGPPANTSTERLDILDDERRVTGFSIIGGEHRLTNYKSVTTVHRFEKENRIWTVVLESYVVDMPEGNSEDDTRMFADTVVKLNLQKLATVAEAMARNSGDGSGSQVT; 100
PYR1^K59R,N167D (receptor, not shown: small tags and cut ends, pBD-PYR1 fusion in yeast) MPSELTPEERSELKNSIAEFHTYQLDPGSCSSLHAQRIHAPPELVWSIVRRFDKPQTYRHFIKSCSVEQNFEMRVGCTRDVIVISGLPANTSTERLDILDDERRVTGFSIIGGEHRLTNYKSVTTVHRFEKENRIWTVVLESYVVDMPEGNSEDDTRMFADTVVKLDLQKLATVAEAMARNSGDGSGSQVT; 100
PYR1^K59R,F159L (receptor, not shown: small tags and cut ends, pBD-PYR1 fusion in yeast) MPSELTPEERSELKNSIAEFHTYQLDPGSCSSLHAQRIHAPPELVWSIVRRFDKPQTYRHFIKSCSVEQNFEMRVGCTRDVIVISGLPANTSTERLDILDDERRVTGFSIIGGEHRLTNYKSVTTVHRFEKENRIWTVVLESYVVDMPEGNSEDDTRMLADTVVKLNLQKLATVAEAMARNSGDGSGSQVT; 100
PYR1^K59R,M158G (receptor, not shown: small tags and cut ends, pBD-PYR1 fusion in yeast) MPSELTPEERSELKNSIAEFHTYQLDPGSCSSLHAQRIHAPPELVWSIVRRFDKPQTYRHFIKSCSVEQNFEMRVGCTRDVIVISGLPANTSTERLDILDDERRVTGFSIIGGEHRLTNYKSVTTVHRFEKENRIWTVVLESYVVDMPEGNSEDDTRGFADTVVKLNLQKLATVAEAMARNSGDGSGSQVT; 100
PYR1^K59R,V164Q (receptor, not shown: small tags and cut ends, pBD-PYR1 fusion in yeast) MPSELTPEERSELKNSIAEFHTYQLDPGSCSSLHAQRIHAPPELVWSIVRRFDKPQTYRHFIKSCSVEQNFEMRVGCTRDVIVISGLPANTSTERLDILDDERRVTGFSIIGGEHRLTNYKSVTTVHRFEKENRIWTVVLESYVVDMPEGNSEDDTRMFADTVQKLNLQKLATVAEAMARNSGDGSGSQVT; 100
PYR1^K59R,M158T (receptor, not shown: small tags and cut ends, pBD-PYR1 fusion in yeast) MPSELTPEERSELKNSIAEFHTYQLDPGSCSSLHAQRIHAPPELVWSIVRRFDKPQTYRHFIKSCSVEQNFEMRVGCTRDVIVISGLPANTSTERLDILDDERRVTGFSIIGGEHRLTNYKSVTTVHRFEKENRIWTVVLESYVVDMPEGNSEDDTRTFADTVVKLNLQKLATVAEAMARNSGDGSGSQVT; 100

Looking up PYR1^K59R,N167T (receptor, not shown: small tags and cut ends, pBD-PYR1 fusion in yeast) MPSELTPEERSELKNSIAEFHTYQLDPGSCSSLHAQRIHAPPELVWSIVRRFDKPQTYRHFIKSCSVEQNFEMRVGCTRDVIVISGLPANTSTERLDILDDERRVTGFSIIGGEHRLTNYKSVTTVHRFEKENRIWTVVLESYVVDMPEGNSEDDTRMFADTVVKLTLQKLATVAEAMARNSGDGSGSQVT , I see its Threshold listed as 100

Threshold reading for PYR1^K59R,T162K (receptor, not shown: small tags and cut ends, pBD-PYR1 fusion in yeast) MPSELTPEERSELKNSIAEFHTYQLDPGSCSSLHAQRIHAPPELVWSIVRRFDKPQTYRHFIKSCSVEQNFEMRVGCTRDVIVISGLPANTSTERLDILDDERRVTGFSIIGGEHRLTNYKSVTTVHRFEKENRIWTVVLESYVVDMPEGNSEDDTRMFADKVVKLNLQKLATVAEAMARNSGDGSGSQVT : 100

For PYR1^K59R,V83L (receptor, not shown: small tags and cut ends, pBD-PYR1 fusion in yeast) MPSELTPEERSELKNSIAEFHTYQLDPGSCSSLHAQRIHAPPELVWSIVRRFDKPQTYRHFIKSCSVEQNFEMRVGCTRDVILISGLPANTSTERLDILDDERRVTGFSIIGGEHRLTNYKSVTTVHRFEKENRIWTVVLESYVVDMPEGNSEDDTRMFADTVVKLNLQKLATVAEAMARNSGDGSGSQVT the binder record lists Threshold as 100
